# Assay details: small-molecule binders of probe aNOTCH2, primary screen, biochemical, small-molecule microarray, 635/667 nm fluorescence (AID 1121);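 also: score merges feature fluorescence read at 667 nm with its signal to noise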
# Measurement parameters: higher = more signal
I'd appreciate it if you could supply composite z-score values for the items below.

// below: answered compounds
CCOC(=O)C[C@H]1[C@H](OC(=O)c2ccc(C(=O)c3ccccc3)cc2)[C@@H](NC(=O)c2ccc3ccccc3c2)c2cc(OCCCO)ccc2N1C(=O)c1ccc2ccccc2n1
0.0683
C=CCC(OC(C)=O)[C@@H]1[C@@H](N(Cc2cc3ccccc3o2)C(=O)Cc2ccc(OC)cc2)c2cc(OCCCO)ccc2N1C(=O)Cc1ccc2ccccc2c1 (stereo partly specified)
-0.0424
COc1ccc(NN2C(C(O)c3ccc(OC)cc3)C=CC3C(=O)N(C4CCCCC4)C(=O)C32)cc1 (stereo unspecified)
-0.0037
C=C(CC1([C@@H](NP(=O)(c2ccccc2)c2ccccc2)[C@H]2C[C@@H]2CCN(C(=O)OCC)S(=O)(=O)c2ccc(C)cc2)CC1)c1ccccc1
0.354
C=CCOC(=O)[C@H]1[C@@H]2C(=O)O[C@@H](c3ccccc3)[C@@H](c3ccccc3)N2[C@@H](c2ccc(OCCOC(=O)[C@H]3C[C@H]4C(=O)NCC(=O)N4[C@H]3c3ccc(O)cc3)cc2)[C@]12C(=O)Nc1ccc(I)cc12
-0.104

// switching to the query compound
Lab note: measured composite z-score of `COC(=O)[C@]1(CO)N=C(c2ccc(OCCCO)cc2)O[C@@H]1c1ccccc1CN=[N+]=[N-]` was -0.127

====

# Target system: Epidermal growth factor receptor (Homo sapiens) (UniProt P00533)
# Sequence (P00533 whole entry, looked up): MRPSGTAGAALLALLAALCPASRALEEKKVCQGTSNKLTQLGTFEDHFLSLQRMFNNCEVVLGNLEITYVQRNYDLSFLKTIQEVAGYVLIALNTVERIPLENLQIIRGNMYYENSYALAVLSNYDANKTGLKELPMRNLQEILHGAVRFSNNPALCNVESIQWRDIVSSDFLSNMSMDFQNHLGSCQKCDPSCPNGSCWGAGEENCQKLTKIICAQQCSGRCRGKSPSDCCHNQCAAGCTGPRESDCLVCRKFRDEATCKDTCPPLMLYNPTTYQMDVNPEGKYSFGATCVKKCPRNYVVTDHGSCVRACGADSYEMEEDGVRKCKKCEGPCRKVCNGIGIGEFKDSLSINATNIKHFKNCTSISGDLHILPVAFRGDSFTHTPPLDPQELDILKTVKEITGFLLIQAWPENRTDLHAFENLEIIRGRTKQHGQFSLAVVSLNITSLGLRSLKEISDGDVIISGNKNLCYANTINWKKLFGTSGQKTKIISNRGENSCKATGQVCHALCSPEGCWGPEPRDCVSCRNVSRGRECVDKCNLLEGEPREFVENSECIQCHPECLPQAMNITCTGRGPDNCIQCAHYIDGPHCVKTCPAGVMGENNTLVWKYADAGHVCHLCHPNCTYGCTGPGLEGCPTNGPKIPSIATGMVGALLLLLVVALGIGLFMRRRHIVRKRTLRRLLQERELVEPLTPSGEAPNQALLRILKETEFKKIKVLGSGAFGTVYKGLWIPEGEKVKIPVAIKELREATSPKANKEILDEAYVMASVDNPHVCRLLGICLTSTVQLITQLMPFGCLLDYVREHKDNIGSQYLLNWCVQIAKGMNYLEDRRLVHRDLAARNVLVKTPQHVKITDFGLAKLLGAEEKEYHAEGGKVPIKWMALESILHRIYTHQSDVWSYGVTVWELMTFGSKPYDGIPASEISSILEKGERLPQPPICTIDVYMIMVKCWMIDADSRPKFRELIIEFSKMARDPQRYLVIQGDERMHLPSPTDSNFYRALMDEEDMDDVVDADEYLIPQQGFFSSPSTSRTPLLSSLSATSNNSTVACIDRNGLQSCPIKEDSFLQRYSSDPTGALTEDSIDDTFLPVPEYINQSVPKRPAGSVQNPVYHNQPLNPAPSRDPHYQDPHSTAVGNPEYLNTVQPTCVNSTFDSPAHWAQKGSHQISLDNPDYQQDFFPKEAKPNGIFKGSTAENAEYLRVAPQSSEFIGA
# Assay details: EGFR binders on small-molecule microarrays, primary screen, biochemical, small-molecule microarray, 635 nm fluorescence (AID 1104);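 also: score merges 667 nm emission intensity with spot signal to noise over triplicate slides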
# Measurement parameters: EGFR binding, higher = more signal
Quantity measured: composite z-score
One number for each entry.

CN(C)C(=O)[C@]1(Cc2ccccc2CN=[N+]=[N-])N=C(c2ccc(OCCCO)cc2)O[C@@H]1c1ccccc1N=[N+]=[N-]
-0.205

Provide each entry's composite z-score from the list below.
1. CCCCC(=C=CC[C@H](O)c1ccc(OCCO)cc1)C[C@H](O)c1ccccn1
2. Cc1ccccc1C(O)C1C=CC2C(=O)N(c3ccccc3)C(=O)C2N1Nc1ccccc1F (configuration not stated)
3. COc1ccc([Si](C)(C)[C@@H]2[C@@H](CCO)O[C@]3(C(=O)N(Cc4ccccc4)c4ccc(N5C(=O)c6ccccc6Oc6ccccc65)cc43)[C@H]2C)cc1
4. C=CCC(OC(C)=O)[C@@H]1[C@@H](N(Cc2ccc(-c3cccc(C(F)(F)F)c3)o2)C(=O)Cc2ccc(F)cc2)c2cc(OCCCO)ccc2N1C(=O)c1ccc2ccccc2c1 (some centres not stated)
5. C#CCN(C/C=C/c1ccccc1)[C@H](CO[Si](C)(C)C(C)(C)C)c1ccccc1
6. CN(C)CCCC[C@@H]1NC(=O)[C@@H]2C[C@H](C(=O)NCCCCCCNC(=O)CS)[C@H](c3cccc(OCCO)c3)N2C1=O

Output:
-0.229
0.153
-1.04
-0.659
-0.468
-0.247

====

# System: XIP peptide (Xip251-270) binding
# Assay details: small-molecule binders of XIP peptide, primary screen, biochemical, small-molecule microarray, fluorescence 635/667 nm, 0.1 µg/mL protein (AID 1182)
# Measurement parameters: fluorescent protein binding, 635 nm, higher = more signal, called active from +8 up or from −8 down
For each record, write down the corresponding composite z-score.
Give bare numbers.

C=CCC(OC(C)=O)[C@@H]1[C@@H](N(Cc2ccc(-c3cccc(C(F)(F)F)c3)o2)C(=O)c2cccc3ccccc23)c2cc(OCCCO)ccc2N1C(=O)c1ccc2ccccc2n1 (stereo partly specified)
-0.279

Return reported composite z-score values for all items listed beneath this line.
1. CCCCN1CC=CC23O[C@@H]4C=CCOC(=O)[C@@H]4[C@H]2C(=O)N(C(CO)C(C)C)[C@@H]3C1=O (stereo partly specified)
2. CC=CC(O)C1C=CC2C(=O)N(C)C(=O)C2N1NC(=O)OC(C)(C)C (stereo unspecified)
3. CCOC(=O)C[C@H]1[C@H](OC(=O)c2ccc(C(=O)c3ccccc3)cc2)[C@@H](NC(=O)c2ccc3ccccc3c2)c2cc(OCCCO)ccc2N1C(=O)c1ccc2ccccc2n1
4. COc1cc2c(cc1O)C(C1CC1)N(Cc1ccc([N+](=O)[O-])o1)CC2 (stereo unspecified)
5. C=CCOC(=O)[C@H]1[C@@H]2C(=O)O[C@@H](c3ccccc3)[C@@H](c3ccccc3)N2[C@@H](c2ccc(OCCOC(=O)[C@H]3C[C@H]4C(=O)NCC(=O)N4[C@H]3c3ccc(O)cc3)cc2)[C@]12C(=O)Nc1ccc(I)cc12

Output:
1. -0.332
2. -0.3
3. 0.27
4. 0.402
5. -0.256

====

# Target system: Streptavidin (Streptomyces avidinii) (UniProt P22629)
# Sequence (P22629 whole entry, looked up): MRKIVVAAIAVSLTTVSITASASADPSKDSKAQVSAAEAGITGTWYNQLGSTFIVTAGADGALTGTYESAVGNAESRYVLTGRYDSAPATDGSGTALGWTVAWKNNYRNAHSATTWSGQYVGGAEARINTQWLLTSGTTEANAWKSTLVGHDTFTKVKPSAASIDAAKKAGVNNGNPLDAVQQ
# Assay details: streptavidin binders on small-molecule microarray, primary screen, artefact control for SMM compound annotation, biophysical, 635/667 nm fluorescence (AID 1147);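 also: signal reflects streptavidin binding to arrayed compounds as a control protein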
# Measurement parameters: streptavidin binding, higher = more signal
Can you tell me composite z-score for the items I'm about to list?
Numbers only.

C#CCN([C@H](/C=C/C1CC1)[C@@H](O)Cc1ccccc1)[C@@H](Cc1ccccc1)C(=O)OC
0.483

Field: composite z-score. Fill in for each record below.
1. COc1ccc(C(O)C2C=CC3C(=O)N(C)C(=O)C3N2Nc2ccc([N+](=O)[O-])cc2[N+](=O)[O-])cc1OCc1ccccc1 (configuration not stated)
2. CC(=O)c1ccc(C(O)C2C=CC3C(=O)N(C)C(=O)C3N2NC(=O)OC(C)(C)C)cc1 (configuration not stated)
3. CC(C)C[C@@H]1NC(=O)[C@H]2C[C@@H](C(=O)NCCCCCNC(=O)CS)[C@@H](c3ccc(O)cc3)N2C1=O
4. CN(C)C(=O)[C@@]1(CCS(=O)(=O)c2ccccc2)N=C(c2ccc(OCCCO)cc2)O[C@H]1c1ccccc1N=[N+]=[N-]
5. CC(C)C[C@H]1NC(=O)[C@@]23C(=O)N[C@@H](Cc4ccccc4)C2[C@H](C)[C@@]2(C)O[C@H]2C3/C=C/C/C=C\CNC(=O)[C@@H]2CCCN2C1=O (some centres not stated)
6. COC(=O)[C@@]1(Cc2ccc(F)cc2)[C@H]2c3cc(C(=O)N4CCCC4)n(CCO)c3C[C@H]2CN1C(=O)c1ccccc1

Output:
1: 0.171; 2: 1.83; 3: 0.413; 4: 1.82; 5: -0.362; 6: 0.0865

====

# Assay details: basal RPMI8226 viability, no added stimulus, profiling panel, cell-based, calcein-AM fluorescence, 48 h, PK04 Diversity Set (AID 1166);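 also: cells grown under basal conditions without added stimulus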
# Measurement parameters: RPMI8226 myeloma viability, higher = more signal
Quantity measured: z-score
One number for each entry.

C=C(CCCC)C(=O)CC[C@H](OC(=O)c1cccnc1)c1ccc(CO)o1
-0.0395

Look at each compound and report its z-score.
1. CCCCN1CC=CC23O[C@@H]4C=CCOC(=O)[C@@H]4[C@H]2C(=O)N(CCO)[C@@H]3C1=O (stereo not given in full)
2. NCCCC[C@@H]1NC(=O)[C@H]2C[C@@H](C(=O)NCc3ccc(F)cc3)[C@@H](c3cccc(OCCO)c3)N2C1=O
3. CCOC(=O)C[C@H]1[C@H](OC(=O)Cc2ccc3c(c2)OCO3)[C@@H](NC(=O)c2ccccc2)c2cc(OCCCO)ccc2N1C(=O)Cc1ccc(OC)cc1
4. COC(=O)Cn1c(C(=O)N(C)C)cc2c1C[C@H]1CN(C(=O)c3ccccc3)[C@@](Cc3ccc(OC)cc3)(C(=O)OC)[C@@H]21
5. CN(C)C(=O)[C@]1(Cc2ccccc2)N=C(c2ccc(OCCCO)cc2)O[C@@H]1c1ccccc1
6. Cc1ccc(S[C@]2(C(=O)NCC(F)(F)F)CC(=O)N(C3CCCCC3)[C@@H]2c2ccc(CO)cc2)cc1

Output:
[0.342, -0.259, 0.434, -0.734, -1, -0.758]

State recorded z-score for all listed compounds.
1. CN1C(=O)[C@]2(CCS(=O)(=O)c3ccccc3)N=C(c3ccc(OCCCO)cc3)O[C@@H]2c2ccccc21
2. CC1CC/C=C\[C@H]2OC34C=CCN(CCN5CCOCC5)C(=O)[C@H]3N(CCCCCCO)C(=O)[C@@H]4C2C(=O)O1 (stereo not given in full)
3. COC(=O)c1c(CC[C@@H](CO)NC(=O)N[C@@H](Cc2ccccc2)Cn2cc(-c3cncn3C)nn2)oc(C(C)=O)c1C(=O)OC

Output:
1: -1.77; 2: -0.575; 3: -1.81

Look at each compound and report its z-score.
1. CN(C)CCCC[C@@H]1NC(=O)[C@H]2C[C@@H](C(=O)NCc3ccc(F)cc3)[C@@H](c3ccc(O)cc3)N2C1=O
2. C=CCC(OC(C)=O)[C@@H]1[C@@H](N(Cc2ccc(-c3cccc(C(F)(F)F)c3)o2)C(=O)c2cccc3ccccc23)c2cc(OCCCO)ccc2N1C(=O)c1ccc2ccccc2c1 (stereo not given in full)

Output:
[-0.23, -1.99]

Would you mind listing z-score for each of the following compounds?
1. COC(=O)[C@@]1(Cc2ccccc2)[C@@H]2[C@@H](CC(=O)[C@H]2CC(=O)C(=O)N(C)C)CN1C(=O)c1ccccc1
2. CC(=O)c1ccc(C(O)C2C=CC3C(=O)NC(=O)C3N2Nc2ccc(Cl)cc2Cl)cc1 (stereo not given)
3. CC(C)CNC(=O)[C@@H]1c2ccccc2C(=O)N(C(C)C)[C@H]1c1ccc(CO)cc1

Output:
1: 0.397; 2: -0.344; 3: 1.49
